Entries and their Neutralization PSV IC50 values follow.
Target entity: VP1 capsid protein on BKV pseudovirions of genotype II (GBR-12; AB263920) (BK virus genotype II (GBR-12))
Experiment description: cell-based or functional assay
Kindly answer with a numeric value in µg/mL, unit omitted.

// known answers, use as guide
binder="antibody B10P1 (antibody, V domains shown) VH: EVQLSESGGGLVQPGGSLRLSCAASGFTFSSYAMSWVRQAPGKGLEWVSSLTGSGGSTYYRDSVKGRFTIFRDNSKKTLYMQMNSLRAEDTAVYYCAKEGAYSYDFWYFDLWGRGTLVTVSS VL: EIVLTQSPGTLSLSPGERATLSCRASQTVSGNYLAWYQQKPGQSPSLLIYGASSRATGIPDRFTGSGSGTDFTLTISRLEPADFAVYYCQQYGRPLTFGGGTKVDIK" number=0.107
binder="antibody G9P2 (antibody, V domains shown) VH: EVQLLESGGGLVQPGGSLRLSCAASGFTFSSYAMSWVRQAPGKGLEWVSSLTGSGGSTYYRDSVKGRFTIFRDNSKKTLYMQMNSLRAEDTAVYYCAKEGAYSYDFWYFDLWGRGTLVTVSS VL: EIVLTQSPGTLSLSPGERATLSCRASQTVSGNYLAWYQQKPGQSPSLLTYGASSRATGIPDRFTGSGSGTDFTLTISRLEPADFAVYYCQQYGRPLTFGGGTKVEIK" number=0.0336

# evaluate next
// lookup Neutralization PSV IC50 for antibody G8P6 (antibody, V domains shown) VH: QVQLQESGPGLVRPSQTLSLTCTVSGGSMTSGSYYWSWIRQPAEKGLEWIGRIYTSGRTDYNPSLKSRVAMSIDTSKNQFSLRLTSVTAADTAVYYCARWGDSSAYYYVGDPWGRGTTVTVSS VL: DIQMTQSPSSLSASIGDRVTITCRASQNINTYLYWYQQKPGKAPQLLIYAASNLQTGAPSRFSGSGSGTDFTLTISSLQPADFATYYCQQSFSLPHTFGQGTKLEIK
0.0058

Every entry's value here was drawn from patent EP4659811A1.
